Assay: Solubility studies in water, FaSSIF, FeSSIF and FaSSGF (excess solids in 5 mL medium at 37° C., HPLC; pH, XRPD and NMR of remaining material)
Assay type: physicochemical
Details: FaSSIF, 37 °C, thermodynamic from solid, 30 minutes
parameter: solubility at 30 min (µg/mL)
Enter your answer as a number in µg/mL; do not include the unit.

molecule	parameter	assay result
CC(C)c1cnn2c(N[C@@H]3CCc4[nH]c5ccccc5c4C3)nc(-c3cncc(F)c3)nc12.CCS(=O)(=O)O [Compound 1 Form B]	solubility at 30 min	45

Please list solubility at 30 min recorded for the molecule CC(C)c1cnn2c(N[C@@H]3CCc4[nH]c5ccccc5c4C3)nc(-c3cncc(F)c3)nc12.CS(=O)(=O)O [Compound 3 Form B]
65

###

Experiment: Solubility studies in water, FaSSIF, FeSSIF and FaSSGF (excess solids in 5 mL medium at 37° C., HPLC; pH, XRPD and NMR of remaining material)
Assay type: physicochemical
Settings: pH of solubility sample, FaSSGF, 24 hours, pH meter
Quick list: pH per entry.
Just the number, please, no unit after it.

molecule	pH
CC(C)c1cnn2c(N[C@@H]3CCc4[nH]c5ccccc5c4C3)nc(-c3cncc(F)c3)nc12 [Compound 2 Form A]	1.2
CC(C)c1cnn2c(N[C@@H]3CCc4[nH]c5ccccc5c4C3)nc(-c3cncc(F)c3)nc12.CS(=O)(=O)O [Compound 3 Form B]	1.2
CC(C)c1cnn2c(N[C@@H]3CCc4[nH]c5ccccc5c4C3)nc(-c3cncc(F)c3)nc12.CCS(=O)(=O)O [Compound 1 Form B]	1.2

Query molecule follows.
Please list pH recorded for the molecule CC(C)c1cnn2c(N[C@@H]3CCc4[nH]c5ccccc5c4C3)nc(-c3cncc(F)c3)nc12 [Compound 4 Form A]
1.1

###

Quick list: pH per entry.
Assay: Solubility studies in water, FaSSIF, FeSSIF and FaSSGF (excess solids in 5 mL medium at 37° C., HPLC; pH, XRPD and NMR of remaining material)
Format: physicochemical
Conditions: pH of solubility sample, FaSSIF, 24 hours, pH meter

Consider the worked cases shown below.
molecule	pH
CC(C)c1cnn2c(N[C@@H]3CCc4[nH]c5ccccc5c4C3)nc(-c3cncc(F)c3)nc12 [Compound 2 Form A]	5.0
CC(C)c1cnn2c(N[C@@H]3CCc4[nH]c5ccccc5c4C3)nc(-c3cncc(F)c3)nc12.CS(=O)(=O)O [Compound 3 Form B]	5.7
CC(C)c1cnn2c(N[C@@H]3CCc4[nH]c5ccccc5c4C3)nc(-c3cncc(F)c3)nc12 [Compound A Form B]	6.4
CC(C)c1cnn2c(N[C@@H]3CCc4[nH]c5ccccc5c4C3)nc(-c3cncc(F)c3)nc12 [Compound 4 Form A]	1.9

Query molecule follows.
Please list pH recorded for the molecule CC(C)c1cnn2c(N[C@@H]3CCc4[nH]c5ccccc5c4C3)nc(-c3cncc(F)c3)nc12.CCS(=O)(=O)O [Compound 1 Form B]
6.2

###

Assay: Solubility studies in water, FaSSIF, FeSSIF and FaSSGF (excess solids in 5 mL medium at 37° C., HPLC; pH, XRPD and NMR of remaining material)
Format: physicochemical
Details: FeSSIF, 37 °C, thermodynamic from solid, 120 minutes
parameter: solubility at 120 min (µg/mL)
Enter your answer as a number in µg/mL; do not include the unit.

compound	unit text	solubility at 120 min
CC(C)c1cnn2c(N[C@@H]3CCc4[nH]c5ccccc5c4C3)nc(-c3cncc(F)c3)nc12.CS(=O)(=O)O [Compound 3 Form B]	µg/mL	43

Query compound follows.
Please list solubility at 120 min recorded for the compound CC(C)c1cnn2c(N[C@@H]3CCc4[nH]c5ccccc5c4C3)nc(-c3cncc(F)c3)nc12.CCS(=O)(=O)O [Compound 1 Form B]
56

###

Assay: Solubility studies in water, FaSSIF, FeSSIF and FaSSGF (excess solids in 5 mL medium at 37° C., HPLC; pH, XRPD and NMR of remaining material)
Format: physicochemical
Details: pH of solubility sample, FeSSIF, 24 hours, pH meter
Quick list: pH per entry.

compound	parameter	assay result
CC(C)c1cnn2c(N[C@@H]3CCc4[nH]c5ccccc5c4C3)nc(-c3cncc(F)c3)nc12.CS(=O)(=O)O [Compound 3 Form B]	pH	4.4
CC(C)c1cnn2c(N[C@@H]3CCc4[nH]c5ccccc5c4C3)nc(-c3cncc(F)c3)nc12 [Compound 4 Form A]	pH	4.4
CC(C)c1cnn2c(N[C@@H]3CCc4[nH]c5ccccc5c4C3)nc(-c3cncc(F)c3)nc12 [Compound 2 Form A]	pH	4.7
CC(C)c1cnn2c(N[C@@H]3CCc4[nH]c5ccccc5c4C3)nc(-c3cncc(F)c3)nc12.CCS(=O)(=O)O [Compound 1 Form B]	pH	4.8

Please list pH recorded for the compound CC(C)c1cnn2c(N[C@@H]3CCc4[nH]c5ccccc5c4C3)nc(-c3cncc(F)c3)nc12 [Compound A Form B]
4.8

###

Assay: Solubility studies in water, FaSSIF, FeSSIF and FaSSGF (excess solids in 5 mL medium at 37° C., HPLC; pH, XRPD and NMR of remaining material)
Format: physicochemical
Details: pH of solubility sample, Water, 30 minutes, pH paper
parameter: pH
Just the number, please, no unit after it.

Please list pH recorded for the molecule CC(C)c1cnn2c(N[C@@H]3CCc4[nH]c5ccccc5c4C3)nc(-c3cncc(F)c3)nc12.CS(=O)(=O)O [Compound 3 Form B]
4

Please list pH recorded for the molecule CC(C)c1cnn2c(N[C@@H]3CCc4[nH]c5ccccc5c4C3)nc(-c3cncc(F)c3)nc12.CCS(=O)(=O)O [Compound 1 Form B]
4.5

Please list pH recorded for the molecule CC(C)c1cnn2c(N[C@@H]3CCc4[nH]c5ccccc5c4C3)nc(-c3cncc(F)c3)nc12 [Compound 2 Form A]
3.5

Please list pH recorded for the molecule CC(C)c1cnn2c(N[C@@H]3CCc4[nH]c5ccccc5c4C3)nc(-c3cncc(F)c3)nc12 [Compound 4 Form A]
4.5

###

Test: Solubility studies in water, FaSSIF, FeSSIF and FaSSGF (excess solids in 5 mL medium at 37° C., HPLC; pH, XRPD and NMR of remaining material)
Assay type: physicochemical
Conditions: water, 37 °C, thermodynamic from solid, 24 hours
Quick list: solubility at 24 h per entry.

compound	solubility at 24 h
CC(C)c1cnn2c(N[C@@H]3CCc4[nH]c5ccccc5c4C3)nc(-c3cncc(F)c3)nc12.CCS(=O)(=O)O [Compound 1 Form B]	< 0.1 µg/mL
CC(C)c1cnn2c(N[C@@H]3CCc4[nH]c5ccccc5c4C3)nc(-c3cncc(F)c3)nc12.CS(=O)(=O)O [Compound 3 Form B]	< 0.1 µg/mL

Query compound follows.
Please list solubility at 24 h recorded for the compound CC(C)c1cnn2c(N[C@@H]3CCc4[nH]c5ccccc5c4C3)nc(-c3cncc(F)c3)nc12 [Compound 2 Form A]
< 0.1 µg/mL

###

Assay: Solubility studies in water, FaSSIF, FeSSIF and FaSSGF (excess solids in 5 mL medium at 37° C., HPLC; pH, XRPD and NMR of remaining material)
Format: physicochemical
Conditions: water, 37 °C, thermodynamic from solid, 30 minutes
Quick list: solubility at 30 min per entry.

Consider the worked cases shown below.
compound	assay result
CC(C)c1cnn2c(N[C@@H]3CCc4[nH]c5ccccc5c4C3)nc(-c3cncc(F)c3)nc12 [Compound 2 Form A]	< 0.1 µg/mL
CC(C)c1cnn2c(N[C@@H]3CCc4[nH]c5ccccc5c4C3)nc(-c3cncc(F)c3)nc12.CCS(=O)(=O)O [Compound 1 Form B]	< 0.1 µg/mL

Please list solubility at 30 min recorded for the compound CC(C)c1cnn2c(N[C@@H]3CCc4[nH]c5ccccc5c4C3)nc(-c3cncc(F)c3)nc12.CS(=O)(=O)O [Compound 3 Form B]
< 0.1 µg/mL

###

Assay: Stability studies at 40° C./75% RH (HPLC)
Format: physicochemical
Conditions: Time 0, HPLC
parameter: % Area (% Area)
Enter your answer as a number in % Area; do not include the unit.

Consider the worked cases shown below.
compound	% Area, % Area
CC(C)c1cnn2c(N[C@@H]3CCc4[nH]c5ccccc5c4C3)nc(-c3cncc(F)c3)nc12 [Compound 2 Form A]	99.87
CC(C)c1cnn2c(N[C@@H]3CCc4[nH]c5ccccc5c4C3)nc(-c3cncc(F)c3)nc12.CS(=O)(=O)O [Compound 3 Form B]	99.88
CC(C)c1cnn2c(N[C@@H]3CCc4[nH]c5ccccc5c4C3)nc(-c3cncc(F)c3)nc12 [Compound 4 Form A]	99.77

Query compound follows.
Please list % Area recorded for the compound CC(C)c1cnn2c(N[C@@H]3CCc4[nH]c5ccccc5c4C3)nc(-c3cncc(F)c3)nc12.CCS(=O)(=O)O [Compound 1 Form B]
99.90

###

Experiment: Solubility studies in water, FaSSIF, FeSSIF and FaSSGF (excess solids in 5 mL medium at 37° C., HPLC; pH, XRPD and NMR of remaining material)
Format: physicochemical
Settings: water, 37 °C, thermodynamic from solid, 120 minutes
parameter: solubility at 120 min

Please list solubility at 120 min recorded for the molecule CC(C)c1cnn2c(N[C@@H]3CCc4[nH]c5ccccc5c4C3)nc(-c3cncc(F)c3)nc12.CS(=O)(=O)O [Compound 3 Form B]
< 0.1 µg/mL

Please list solubility at 120 min recorded for the molecule CC(C)c1cnn2c(N[C@@H]3CCc4[nH]c5ccccc5c4C3)nc(-c3cncc(F)c3)nc12.CCS(=O)(=O)O [Compound 1 Form B]
< 0.1 µg/mL

Please list solubility at 120 min recorded for the molecule CC(C)c1cnn2c(N[C@@H]3CCc4[nH]c5ccccc5c4C3)nc(-c3cncc(F)c3)nc12 [Compound 2 Form A]
< 0.1 µg/mL
